Test: Cytotoxicity in African green monkey Vero cells by MTT assay
Type: toxicity, cell-based
Settings: chlorocebus sabaeus
READOUT LABEL: CC50

Name the reported CC50 value associated with the compound CCC(CC)COC(=O)[C@H](C)NP(=O)(OC[C@@H]1O[C@](C#N)(c2ccc3c(N)ncnn23)[C@@H](O)[C@H]1O)Oc1ccccc1 (stereo partly specified)
> 100 µM

----------
Experiment: Binding affinity to HCoV-NL63 MPro assessed as inhibition constant
Parameters: species or system Human coronavirus NL63
READOUT LABEL: Ki (µM)
The reply should contain only the number, in µM.

Sample Cc1cc(C(=O)N[C@@H](C)C(=O)N[C@H](C(=O)N[C@@H](CC(C)C)C(=O)N[C@H](/C=C/C(=O)OCc2ccccc2)C[C@@H]2CCNC2=O)C(C)C)no1 — what was its Ki?
11.3

----------
Target: Replicase polyprotein 1ab (Severe acute respiratory syndrome-related coronavirus, UniProt P0C6X7)
READOUT LABEL: Ki (nM)
Write it as a number; the unit nM goes unstated.

Consider the compound COc1cccc2[nH]c(C(=O)N[C@@H](CC(C)C)C(=O)N[C@@H](C[C@@H]3CCNC3=O)C(=O)CO)cc12 and give its measured Ki.
4.94

----------
Biological target: UniProt:P07711
Sequence (P07711 whole entry): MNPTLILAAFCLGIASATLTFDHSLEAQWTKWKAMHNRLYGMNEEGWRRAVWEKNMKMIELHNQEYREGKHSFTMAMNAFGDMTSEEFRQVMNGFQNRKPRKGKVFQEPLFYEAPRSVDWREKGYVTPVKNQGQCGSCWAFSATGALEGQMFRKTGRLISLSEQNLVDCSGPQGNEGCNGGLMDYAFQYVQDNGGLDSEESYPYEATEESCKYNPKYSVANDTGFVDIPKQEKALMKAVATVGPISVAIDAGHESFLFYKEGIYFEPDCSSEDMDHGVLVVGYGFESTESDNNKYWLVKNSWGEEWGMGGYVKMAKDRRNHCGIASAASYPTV
Test: Inhibition of recombinant cathepsin L (unknown origin)
READOUT LABEL: IC50

Any idea what IC50 was measured for CCOC(=O)[C@H]1OC1C(=O)N[C@@H](CC(C)C)C(=O)NCCC(C)C (stereo partly specified) ?
180 nM
